This collection of values is drawn from patent US20250236616A1.

Could you please report measured IC50 for the items listed next?
# Tested on: IL-6
# method.summary: Whole bovine blood assay, LPS-induced IL-6
# Type: cell-based
# details: Bos taurus, fresh whole bovine blood, LPS stimulant; top drug concentration 250 μM
Reply with a number, then the unit it belongs to.

Problem: Answer with reported IC50 of CC[C@H]1OC(=O)[C@H](C)[C@@H](OC2CC(C)(OC)C(O)(CN3CCCCC3)[C@@H](C)O2)[C@H](C)[C@@H](O[C@@H]2O[C@H](C)C[C@H](N(C)S(=O)(=O)c3ccc(Cl)cc3)[C@H]2O)[C@](C)(O)C[C@@H](C)CN(C)[C@H](C)[C@@H](O)[C@]1(C)O (stereo partly shown)
Result: 4 µM

Problem: For "CCCNC[C@]1(O)[C@H](C)O[C@@H](O[C@H]2[C@H](C)[C@@H](O[C@@H]3O[C@H](C)C[C@H](N(C)S(=O)(=O)Nc4ccc(C(F)(F)F)cc4)[C@H]3O)[C@](C)(O)C[C@@H](C)CN[C@H](C)[C@@H](O)[C@](C)(O)[C@@H](CC)OC(=O)[C@@H]2C)C[C@@]1(C)OC" , write its IC50.
Result: 49 µM

Problem: Fill in reported IC50 for this entry: "CC[C@H]1OC(=O)[C@H](C)[C@@H](O)[C@H](C)[C@@H](O[C@@H]2O[C@H](C)C[C@H](N(C)S(=O)(=O)c3ccccc3)[C@H]2Oc2ccccc2)[C@](C)(O)C[C@@H](C)CN(C)[C@H](C)[C@@H](O)[C@]1(C)O"
Result: 43 µM

Problem: Give IC50 for the following compound: CCCNC[C@]1(O)[C@H](C)OC(O[C@H]2[C@H](C)[C@@H](O[C@@H]3O[C@H](C)C[C@H](N(C)S(=O)(=O)c4cc(Br)c(Br)s4)[C@H]3Oc3ccc(OC)cc3)[C@](C)(O)C[C@@H](C)CN[C@H](C)[C@@H](O)[C@](C)(O)[C@@H](CC)OC(=O)[C@@H]2C)C[C@@]1(C)OC (stereo partly shown)
Result: 7 µM
